Entry source: patent US20020026053A1

# tgt: Met receptor (EGFR/Met chimeric cells, EMR) (Homo sapiens, UniProt P08581)
# Construct: expressed in transfected cells; the other entry of the earlier key: EGFR (P00533, Epidermal growth factor receptor)
# Sequence (P08581 with tags, fused parts or gaps): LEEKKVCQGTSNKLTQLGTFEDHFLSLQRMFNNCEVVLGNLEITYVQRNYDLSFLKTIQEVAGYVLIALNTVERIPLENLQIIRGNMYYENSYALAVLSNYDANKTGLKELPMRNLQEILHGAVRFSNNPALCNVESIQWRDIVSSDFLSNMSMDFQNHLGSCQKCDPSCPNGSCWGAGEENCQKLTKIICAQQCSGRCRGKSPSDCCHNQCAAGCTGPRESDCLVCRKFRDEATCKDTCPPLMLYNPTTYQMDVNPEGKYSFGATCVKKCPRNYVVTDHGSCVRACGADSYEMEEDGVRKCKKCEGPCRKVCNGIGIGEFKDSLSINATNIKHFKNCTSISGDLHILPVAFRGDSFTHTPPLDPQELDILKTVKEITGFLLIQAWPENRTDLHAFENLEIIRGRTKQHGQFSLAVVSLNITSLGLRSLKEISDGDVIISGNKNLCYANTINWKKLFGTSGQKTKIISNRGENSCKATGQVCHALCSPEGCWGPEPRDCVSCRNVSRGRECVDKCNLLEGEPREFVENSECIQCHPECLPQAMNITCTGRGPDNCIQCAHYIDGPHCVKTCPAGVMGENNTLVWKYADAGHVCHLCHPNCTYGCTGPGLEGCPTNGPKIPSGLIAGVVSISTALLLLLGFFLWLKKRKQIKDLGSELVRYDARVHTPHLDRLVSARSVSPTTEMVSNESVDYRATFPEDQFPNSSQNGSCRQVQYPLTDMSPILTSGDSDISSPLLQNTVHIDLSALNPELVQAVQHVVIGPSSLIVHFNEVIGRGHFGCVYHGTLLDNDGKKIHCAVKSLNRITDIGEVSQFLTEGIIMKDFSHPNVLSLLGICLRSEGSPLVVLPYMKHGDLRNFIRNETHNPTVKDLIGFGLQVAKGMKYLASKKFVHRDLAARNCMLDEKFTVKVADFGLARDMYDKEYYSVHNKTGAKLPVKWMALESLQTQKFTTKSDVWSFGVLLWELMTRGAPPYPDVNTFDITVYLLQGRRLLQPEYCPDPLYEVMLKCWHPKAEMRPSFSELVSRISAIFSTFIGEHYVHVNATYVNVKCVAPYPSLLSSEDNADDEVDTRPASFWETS
# assayProcedure: Met Autophosphorylation Assay
# Type: biochemical
# particulars: protocol P.130
Exercise: state measured Met Kinase % Inhibition (P.130) for each of the compounds provided.
Field: numeric (%). Do not append units.

## Input # lookup: Met Kinase % Inhibition (P.130) of CNS(=O)(=O)c1ccc2c(c1)C(=CC1COc3ccccc3O1)C(=O)N2 (centres unmarked)
## Output 30.0

## Input # lookup: Met Kinase % Inhibition (P.130) of `COc1ccc(C=C2C(=O)Nc3c(Br)cc(Br)c(C)c32)cc1C`
## Output 26.6

## Input # lookup: Met Kinase % Inhibition (P.130) of `CCOc1ccc(C=C2C(=O)Nc3c(Br)cc(Br)c(C)c32)cc1`
## Output 42.9

## Input # lookup: Met Kinase % Inhibition (P.130) of `Cc1[nH]c2ccccc2c1C=C1C(=O)Nc2ccc(S(=O)(=O)N3CCOCC3)cc21`
## Output 35.9

## Input # lookup: Met Kinase % Inhibition (P.130) of `Cc1ccc(C=C2C(=O)Nc3ccc(Br)c(C)c32)c(C)c1`
## Output 52.5

## Input # lookup: Met Kinase % Inhibition (P.130) of `Cc1c(Br)cc(Br)c2c1C(=Cc1cccc(Oc3cccc(C(F)(F)F)c3)c1)C(=O)N2`
## Output 31.7

## Input # lookup: Met Kinase % Inhibition (P.130) of `O=C1Nc2ccc(S(=O)(=O)Nc3ccc(C(F)(F)F)cc3)cc2C1=Cc1cccc(Oc2cccc(C(F)(F)F)c2)c1`
## Output 24.8

## Input # lookup: Met Kinase % Inhibition (P.130) of `CNS(=O)(=O)c1ccc2c(c1)C(=Cc1cc(O)c(O)c(O)c1)C(=O)N2`
## Output 86.0

====

Exercise: state measured Biochem EGFR % Inhibition (P.167) for each of the compounds provided.
# tgt: EGFR (Homo sapiens, UniProt P00533)
# Construct: endogenous in cells; host or cells: A431 cells (lysate, captured with SUMO1 anti-EGFR antibody)
# Sequence (P00533 25-1210): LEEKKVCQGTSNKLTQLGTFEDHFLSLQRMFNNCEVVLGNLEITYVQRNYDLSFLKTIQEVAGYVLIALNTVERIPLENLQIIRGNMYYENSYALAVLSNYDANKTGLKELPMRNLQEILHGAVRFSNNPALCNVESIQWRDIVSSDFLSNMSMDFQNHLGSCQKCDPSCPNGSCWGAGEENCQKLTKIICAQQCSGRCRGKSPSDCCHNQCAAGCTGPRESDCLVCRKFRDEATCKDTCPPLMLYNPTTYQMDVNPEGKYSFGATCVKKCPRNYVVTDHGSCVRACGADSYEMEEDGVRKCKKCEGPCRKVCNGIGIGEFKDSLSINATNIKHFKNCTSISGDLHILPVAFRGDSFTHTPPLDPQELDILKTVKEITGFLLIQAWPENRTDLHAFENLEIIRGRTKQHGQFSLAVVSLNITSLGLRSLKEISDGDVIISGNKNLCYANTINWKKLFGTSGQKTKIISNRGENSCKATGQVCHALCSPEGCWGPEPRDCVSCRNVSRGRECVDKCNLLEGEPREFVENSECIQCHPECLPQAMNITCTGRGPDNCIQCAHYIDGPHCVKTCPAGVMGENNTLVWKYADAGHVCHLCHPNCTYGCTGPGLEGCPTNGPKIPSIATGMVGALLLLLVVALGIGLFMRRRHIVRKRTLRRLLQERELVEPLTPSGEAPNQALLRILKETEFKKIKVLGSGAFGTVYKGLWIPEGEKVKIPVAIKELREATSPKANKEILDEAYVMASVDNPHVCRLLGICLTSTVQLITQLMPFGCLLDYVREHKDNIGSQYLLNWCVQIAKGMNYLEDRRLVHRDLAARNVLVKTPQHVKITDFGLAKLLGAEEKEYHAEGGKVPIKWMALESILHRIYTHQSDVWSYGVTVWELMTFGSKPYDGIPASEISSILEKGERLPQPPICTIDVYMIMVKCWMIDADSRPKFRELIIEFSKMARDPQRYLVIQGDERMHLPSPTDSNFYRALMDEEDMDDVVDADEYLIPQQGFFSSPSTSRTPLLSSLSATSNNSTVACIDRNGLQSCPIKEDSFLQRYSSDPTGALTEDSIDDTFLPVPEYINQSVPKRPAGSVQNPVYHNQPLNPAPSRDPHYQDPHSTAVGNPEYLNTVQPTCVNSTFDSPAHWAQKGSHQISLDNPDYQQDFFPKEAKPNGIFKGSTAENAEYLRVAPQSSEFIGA
# assayProcedure: Biochemical EGFR Assay
# Set-up: concentration or dose not given beside the values
# particulars: protocol P.167
# Procedure: This assay measures the in vitro kinase activity of EGFR using ELISA. 1. Corning 96-well Elisa plates (Corning Catalog No. 25805-96). 2. SUMO1 monoclonal anti-EGFR antibody (Biochemistry Lab, SUGEN, Inc.). 3. PBS (Dulbecco's Phosphate-Buffered Saline, Gibco Catalog No. 450-1300EB). 6. […] Mix first two ingredients in about 900 ml dH2O, adjust pH to 4.0 with phosphoric acid. […] The solution should be kept in the dark at 4° C. until ready to use. […] 22. Read assay on Dynatech MR7000 ELISA reader. […]
Field: numeric (%). Do not append units.

## Input # lookup: Biochem EGFR % Inhibition (P.167) of `CC(C)c1ccc(C=C2C(=O)Nc3ccc(S(=O)(=O)N4CCOCC4)cc32)cc1`
## Output −4.8

## Input # lookup: Biochem EGFR % Inhibition (P.167) of `O=C1Nc2ccc(S(=O)(=O)Nc3ccc(C(F)(F)F)cc3)cc2C1=Cc1cccc(F)c1F`
## Output −8.6

## Input # lookup: Biochem EGFR % Inhibition (P.167) of `O=C1Nc2ccc(I)cc2C1=Cc1ccnc2ccccc12`
## Output 40.1

## Input # lookup: Biochem EGFR % Inhibition (P.167) of `CC(C)c1ccc(C=C2C(=O)Nc3ccc(S(=O)(=O)Nc4ccc(C(F)(F)F)cc4)cc32)cc1`
## Output 34.1

## Input # lookup: Biochem EGFR % Inhibition (P.167) of `Cc1[nH]c2ccccc2c1C=C1C(=O)Nc2ccc(Br)c(C)c21`
## Output 10.7

## Input # lookup: Biochem EGFR % Inhibition (P.167) of `Cc1ccc(C=C2C(=O)Nc3c(Br)cc(Br)cc32)c(C)c1`
## Output 12.8

## Input # lookup: Biochem EGFR % Inhibition (P.167) of `CNS(=O)(=O)c1ccc2c(c1)C(=Cc1ccc(OCc3ccccc3)cc1)C(=O)N2`
## Output −6.4

## Input # lookup: Biochem EGFR % Inhibition (P.167) of `O=C1Nc2ccc(CCCl)cc2C1=Cc1cccc(Oc2cccc(C(F)(F)F)c2)c1`
## Output 2.8

## Input # lookup: Biochem EGFR % Inhibition (P.167) of `CC(C)c1ccc(C=C2C(=O)Nc3ccc(I)cc32)cc1`
## Output 37.3
